Measured values drawn from ChEMBL document CHEMBL4706619 for this set.

- Assay method text: n-Octanol/saturated water patition coefficient, logP of the compound at 0.05 mg/ml incubated for 24 hrs by HPLC analysis
- Type: physicochemical
- Experimental setup: n-octanol/saturated water
Recorded metric: logP at 24 h
Respond numerically, and do not add a unit to the figure.

[in] Query: logP at 24 h; subject: O=C(Oc1ccc(CCO[C@@H]2O[C@H](CO)[C@@H](O)[C@H](O)[C@H]2O)cc1)c1ccccc1
[out] 1.44

====

Assign pIC50 to each entry below.
- Assay system: UniProt P27338
- Assay method text: Inhibition of human recombinant MAO-B expressed in baculovirus infected BTI cells assessed as inhibition of 4-hydroxyquinoline formation using kynuramine as substrate preincubated with enzyme for 10 mins followed by addition of substrate and measured after 15 mins by fluorescence spectrophotometry
pIC50 is a log-scale quantity: -log10 of the concentration expressed in molar.

[in] Which pIC50 reading was recorded for the compound OC[C@H]1O[C@@H](OCCc2ccc(O)cc2)[C@H](O)[C@@H](O)[C@@H]1O [SALIDROSIDE] ?
[out] 6.09

[in] Entry to check: O=C(Oc1ccc(CCO[C@@H]2O[C@H](CO)[C@@H](O)[C@H](O)[C@H]2O)cc1)c1ccccc1
[out] 7.10

====

Field: Ki. Provide a value for each of the compounds that follow.
- Assay system: Amine oxidase [flavin-containing] B (Homo sapiens, UniProt P27338)
- Sequence (P27338 whole entry): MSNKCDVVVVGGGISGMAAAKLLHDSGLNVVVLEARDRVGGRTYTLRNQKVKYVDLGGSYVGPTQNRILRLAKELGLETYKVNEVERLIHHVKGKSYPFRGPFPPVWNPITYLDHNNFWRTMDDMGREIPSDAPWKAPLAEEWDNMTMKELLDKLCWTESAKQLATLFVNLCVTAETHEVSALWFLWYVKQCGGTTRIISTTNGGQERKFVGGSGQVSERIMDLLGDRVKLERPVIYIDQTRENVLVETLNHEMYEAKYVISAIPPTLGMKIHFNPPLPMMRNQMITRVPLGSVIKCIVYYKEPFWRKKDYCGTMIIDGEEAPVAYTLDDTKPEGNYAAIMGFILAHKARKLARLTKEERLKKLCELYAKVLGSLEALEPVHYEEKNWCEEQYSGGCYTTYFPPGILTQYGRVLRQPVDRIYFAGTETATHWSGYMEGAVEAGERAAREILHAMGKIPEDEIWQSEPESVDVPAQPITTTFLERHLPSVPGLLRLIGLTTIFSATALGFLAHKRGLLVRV
- Assay method text: Competitive inhibition of human recombinant MAO-B expressed in baculovirus infected BTI cells assessed as inhibition of 4-hydroxyquinoline formation using varying concentration of kynuramine as substrate preincubated with enzyme for 10 mins followed by addition of substrate and measured after 15 mins by Lineweaver-Burk plot analysis
Report the figure in µM without appending any unit label.

[in] // lookup Ki | system=Amine oxidase [flavin-containing] B (Homo sapiens, UniProt P27338) | key= O=C(Oc1ccc(CCO[C@@H]2O[C@H](CO)[C@@H](O)[C@H](O)[C@H]2O)cc1)c1ccccc1
[out] 0.041

[in] Cool, now OC[C@H]1O[C@@H](OCCc2ccc(O)cc2)[C@H](O)[C@@H](O)[C@@H]1O [SALIDROSIDE]
[out] 0.92
